target: Thyroid hormone receptor beta (Homo sapiens)
Sequence (P10828 whole entry): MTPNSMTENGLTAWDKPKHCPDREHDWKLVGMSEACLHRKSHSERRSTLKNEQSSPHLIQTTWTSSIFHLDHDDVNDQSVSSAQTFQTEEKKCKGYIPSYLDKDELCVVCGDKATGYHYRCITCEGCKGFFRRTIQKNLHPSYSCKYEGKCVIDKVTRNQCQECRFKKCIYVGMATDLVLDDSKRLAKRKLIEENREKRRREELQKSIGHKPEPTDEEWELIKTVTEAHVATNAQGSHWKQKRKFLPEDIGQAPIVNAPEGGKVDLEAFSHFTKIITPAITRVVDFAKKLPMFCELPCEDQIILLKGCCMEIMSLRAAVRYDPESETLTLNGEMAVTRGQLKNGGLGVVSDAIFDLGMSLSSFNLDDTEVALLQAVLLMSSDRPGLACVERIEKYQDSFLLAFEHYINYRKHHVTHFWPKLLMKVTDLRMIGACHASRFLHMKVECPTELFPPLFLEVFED
experiment: Inhibitory activity against human TRAFbeta
parameter.measured: IC50 (µM)
Answers are plain numbers, in µM.

| smiles.repr | parameter.measured | unit.string | recorded.measurement |
| --- | --- | --- | --- |
| CCC(CC)COc1c(Br)cc(CC(=O)O)cc1Br | IC50 | µM | 0.7 |

Can you give me IC50 for all of these, one by one?
1. CCCCCCOc1c(Br)cc(CCC(=O)O)cc1Br
2. CCCCCCOc1c(Br)cc(CC(=O)O)cc1Br

OUTPUT:
1: 1; 2: 0.8

----------
target: Thyroid hormone receptor beta (Homo sapiens, UniProt P10828)
experiment: Inhibitory activity against human Thyroid hormone receptor beta
Kindly state pIC50 for each of the entries shown.
Numbers only, as −log10 of the molar value.

Would you please look over these solved cases?
| smiles.repr | pIC50 |
| --- | --- |
| O=C(O)Cc1cc(Br)c(OCC2CCCCC2)c(Br)c1 | 6.11 |
| O=C(O)CCc1cc(Br)c(OCC2CCCCC2)c(Br)c1 | 6.72 |

INPUT: Supply measured pIC50 of CCCCCCOc1c(Br)cc(CCC(=O)O)cc1Br in your reply.
OUTPUT: 6.44
